- Test system: Coptotermes formosanus Shiraki
- protocolSummary: Test Example 1: termite-killing test on treated filter paper
- Assay type: in vivo
- details: mortality class; 1 ml of a 500 ppm solution on filter paper, seven days after inoculation, triplicate group of 10 insects
endpoint: Termite-killing effect

Below, each entry is followed by its recorded Termite-killing effect result.
compound	assayResult
N#Cc1ccc(CN(NCC(=O)Nc2ccc(OC(F)(F)F)cc2)c2cccc(C(F)(F)F)c2)cc1	C (89-80)
CC(=O)N(NC(=O)Nc1ccc(OC(F)(F)F)cc1)C(Cc1ccc(C#N)cc1)c1cccc(Cl)c1 (stereo not shown)	A (100)
O=C(NN=C(Cc1ccccc1)c1cccc(C(F)(F)F)c1)Nc1ccc(Cl)cc1	A (100)
O=C(C=NN(Cc1ccc(Cl)cc1)c1cccc(Cl)c1)Nc1ccc(OC(F)(F)F)cc1	A (100)
O=C(C=NN(Cc1ccc(Cl)cc1)c1ccccc1)Nc1ccc(OC(F)(F)F)cc1	A (100)
O=C(NN=C(Cc1ccccc1)c1cccc(Br)c1)Nc1ccc(Cl)cc1	C (89-80)
O=C(NN=C(Cc1ccc([N+](=O)[O-])cc1)c1ccccc1)Nc1ccc(OC(F)(F)F)cc1	A (100)
Cc1cccc(C(Cc2ccccc2)=NNC(=O)Nc2ccc(Cl)cc2)c1	B (99-90)
O=C(NN=C(Cc1ccccc1)c1cccc(Cl)c1)Nc1ccc(OC(F)(F)F)cc1	B (99-90)
N#Cc1ccc(CC(=NNC(=S)Nc2ccc(OC(F)(F)F)cc2)c2cccc(Cl)c2)cc1	A (100)

Challenge: Find Termite-killing effect (Coptotermes formosanus Shiraki) for the entry N#Cc1ccc(CC(=NNC(=S)Nc2ccc(OC(F)(F)F)cc2)c2ccccc2)cc1
Response given: A (100)

Challenge: Try O=C(NNC(Cc1ccccc1)c1ccccc1)Nc1ccc(OC(F)(F)F)cc1 (racemic) next.
Response given: C (89-80)

Challenge: Try N#Cc1ccc(CC(=NNC(=O)Nc2ccc(SC(F)(F)F)cc2)c2cccc(Cl)c2)cc1 next.
Response given: A (100)

---

- Tested on: Coptotermes formosanus Shiraki
- protocolSummary: Test Example 1: termite-killing test on treated filter paper
- Format: in vivo
- details: mortality class; 1 ml of a 500 ppm solution on filter paper, seven days after inoculation, triplicate group of 10 insects
endpoint: Termite-killing effect

Below, each entry is followed by its recorded Termite-killing effect result.
compound	Termite-killing effect
N#Cc1ccc(CC(=NNC(=O)Nc2ccc([S+]([O-])C(F)(F)F)cc2)c2cccc(Br)c2)cc1 (stereo not shown)	C (89-80)
N#Cc1ccc(CC(NNC(=O)Nc2ccc(S(=O)(=O)C(F)(F)F)cc2)c2cccc(Cl)c2)cc1 (stereo not shown)	A (100)
N#Cc1ccc(CN(NCC(=O)Nc2ccc(Cl)cc2)c2cccc(Cl)c2)cc1	C (89-80)
N#Cc1ccc(CC(NNC(=O)Nc2ccc([S+]([O-])C(F)(F)F)cc2)c2cccc(F)c2)cc1 (stereo not shown)	B (99-90)
O=C(NN=C(Cc1ccccc1)c1cccc(F)c1)Nc1ccc(OC(F)(F)F)cc1	A (100)
CC(C(=NNC(=O)Nc1ccc(Cl)cc1)c1ccccc1)c1ccccc1 (racemic) [Compound 64]	A (100)

Challenge: Find Termite-killing effect (Coptotermes formosanus Shiraki) for the entry O=C(CNN(Cc1ccc([N+](=O)[O-])cc1)c1cccc(Cl)c1)Nc1ccc(Cl)cc1
Response given: A (100)

Challenge: Try N#Cc1ccc(CN(N=CC(=O)Nc2ccc(OC(F)(F)F)cc2)c2cccc(Cl)c2)cc1 next.
Response given: C (89-80)
